System: Ipomoea hederacea (IPOHE)
procedure-details: Post-emergence glasshouse herbicide test
Format: in vivo
measurement-setup: post-emergence (sprayed after 8 days cultivation), 1000 g/h, evaluated after 13 days, five point scale
observable: percentage damage caused to the plant, POST Application IPOHE

For orientation, consider the following solved cases.
>  <compound>
Cc1c(-n2nccc(O)c2=O)ccc(S(C)(=O)=O)c1C1=NOCC1

>  <observed-measurement>
5 (5=80-100%)

$$$$
>  <compound>
CS(=O)(=O)c1cc(C(F)(F)F)ccc1-n1ncc(Br)c(O)c1=O

>  <observed-measurement>
5 (5=80-100%)

$$$$
>  <compound>
CCc1cnn(-c2ccc(Cl)cc2S(C)(=O)=O)c(=O)c1O

>  <observed-measurement>
4 (4=60-79%)

$$$$

Moving on to another compound below.
q: Look up percentage damage caused to the plant, POST Application IPOHE for this compound: C=C(C)C1C=NN(c2ccc(C(F)(F)F)cc2S(C)(=O)=O)C(=O)C1=O (stereo not shown)
a: 5 (5=80-100%)

###

System: Amaranthus retoflexus (AMARE)
procedure-details: Pre-emergence glasshouse herbicide test
Assay type: in vivo
measurement-setup: pre-emergence (sprayed after one day cultivation), 1000 g/h, evaluated after 13 days, five point scale
observable: percentage damage caused to the plant, PRE Application AMARE

For orientation, consider the following solved cases.
>  <compound>
CSc1cnn(-c2ccc(C(F)(F)F)nc2C)c(=O)c1O

>  <observed-measurement>
5 (5=80-100%)

$$$$
>  <compound>
C=C(C)c1cnn(-c2ccc(S(C)(=O)=O)c(C3=NOCC3)c2C)c(=O)c1O

>  <observed-measurement>
5 (5=80-100%)

$$$$
>  <compound>
CSc1cnn(-c2ccc(Cl)cc2S(C)(=O)=O)c(=O)c1O

>  <observed-measurement>
4 (4=60-79%)

$$$$
>  <compound>
CCc1cnn(-c2ccc(C(F)(F)F)cc2S(C)(=O)=O)c(=O)c1O

>  <observed-measurement>
5 (5=80-100%)

$$$$
>  <compound>
CCc1cnn(-c2ccc(C(F)(F)F)nc2C)c(=O)c1O

>  <observed-measurement>
5 (5=80-100%)

$$$$
>  <compound>
CCc1cnn(-c2ccc(Cl)cc2S(C)(=O)=O)c(=O)c1O

>  <observed-measurement>
5 (5=80-100%)

$$$$
>  <compound>
Cc1nc(C(F)(F)F)ccc1-n1nccc(O)c1=O.O=C(O)C(F)(F)F

>  <observed-measurement>
4 (4=60-79%)

$$$$
>  <compound>
Cc1c(-n2nccc(O)c2=O)ccc(S(C)(=O)=O)c1C1=NOCC1

>  <observed-measurement>
5 (5=80-100%)

$$$$
>  <compound>
COc1cnn(-c2ccc(C(F)(F)F)cc2C(F)(F)F)c(=O)c1O

>  <observed-measurement>
1 (1=0-19%)

$$$$
>  <compound>
CS(=O)(=O)c1cc(C(F)(F)F)ccc1-n1ncc(Br)c(O)c1=O

>  <observed-measurement>
5 (5=80-100%)

$$$$

# batch: return percentage damage caused to the plant, PRE Application AMARE for each of the 7 compounds below
1. CCc1cnn(-c2ccc(C(F)(F)F)nc2S(C)(=O)=O)c(=O)c1O
2. CSc1cnn(-c2ccc(S(C)(=O)=O)c(C3=NOCC3)c2C)c(=O)c1O
3. Cc1c(-n2ncc(C(C)C)c(O)c2=O)ccc(S(C)(=O)=O)c1C1=NOCC1
4. C=C(C)c1cnn(-c2ccc(C(F)(F)F)nc2C)c(=O)c1O
5. CC(=O)NC(C)(C)Cc1cnn(-c2ccc(C(F)(F)F)cc2S(C)(=O)=O)c(=O)c1O
6. O=c1c(O)c(Cl)cnn1-c1ccc(Cl)cc1Cl
7. Cc1c(-n2ncc(Br)c(O)c2=O)ccc(S(C)(=O)=O)c1C1=NOCC1

a:
1: 5 (5=80-100%); 2: 5 (5=80-100%); 3: 5 (5=80-100%); 4: 5 (5=80-100%); 5: 5 (5=80-100%); 6: 4 (4=60-79%); 7: 5 (5=80-100%)

q: Look up percentage damage caused to the plant, PRE Application AMARE for this compound: Cc1nc(C(F)(F)F)ccc1-n1ncc([S+](C)[O-])c(O)c1=O (stereo not drawn)
a: 4 (4=60-79%)
